viability, T/C reference
Test system: 616215-338-R-J1-PDC tumor spheroids, viability;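 also: spheroids exposed to agents for 7 days before readout; percent viability relative to DMSO vehicle control wells taken as 100%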
method.description: Anticancer human tumor 616215-338-R-J1-PDC patient-derived colon adenocarcinoma cell line growth inhibition [GQUAD]
study.conditions: second compound 0.316 µM; first compound 0.316 µM; active compounds read low; spheroids with HUVEC and MSC
Excerpt: DNA G-quadruplex Stabilizer Agents in Combinations in Complex Spheroids A high-throughput screen of multi-cell type tumor spheroids was designed to identify active combinations of DNA G-quadruplex stabilizer agents and targeted small molecules. […] Compounds. […] If the clinical Cmax for an agent had not been determined, the highest concentration tested was 10 microM. […]
Lab book: enter the figure in %, no units written.

Record excerpt, results attached:
compound="COc1ncnc(C2CC2)c1-c1ncc2cnn(Cc3ccc(-c4nc(C(F)(F)F)cn4C(C)C)cc3)c2n1 + Cc1[nH]c2ccc(F)cc2c1-c1nc2c3cccnc3c3ncccc3c2[nH]1" quantitative_result=96.5
compound="CCc1c2c(nc3ccc(O)cc13)-c1cc3c(c(=O)n1C2)COC(=O)[C@]3(O)CC + Cc1cnc(CNC(=O)c2c(=O)c3ccc(N4CCCN(C)CC4)nc3n3c2sc2ccccc23)cn1" quantitative_result=6.95
compound="CC[C@@]1(O)C(=O)OCc2c1cc1n(c2=O)Cc2cc3c(CN(C)C)c(O)ccc3nc2-1 + Cc1cnc(CNC(=O)c2c(=O)c3ccc(N4CCCN(C)CC4)nc3n3c2sc2ccccc23)cn1" quantitative_result=40.2
compound="O=c1[nH]cc(F)c(=O)[nH]1 + CN(C)c1ccc(Nc2c3ccc(NC(=O)CCN4CCCC4)cc3nc3cc(NC(=O)CCN4CCCC4)ccc23)cc1" quantitative_result=54.5

Req: Param item = COc1cccc2c1C(=O)c1c(O)c3c(c(O)c1C2=O)CC(O)(C(=O)CO)CC3OC1CC(N)C(O)C(C)O1 (stereo not given) + CN(C)c1ccc(Nc2c3ccc(NC(=O)CCN4CCCC4)cc3nc3cc(NC(=O)CCN4CCCC4)ccc23)cc1 ; retrieve measured viability, T/C.
Resp: 49.3
